Target: T1, SARS-CoV-2 spike trimer S (Wuhan, SmT1) (SARS-CoV-2 Wuhan)
T1 construct: extracellular domain
Assay: SPR, antigen on chip
Recorded koff by entry

BINDER | koff, s⁻¹
NRCoV2-S2F3 VHH (VHH) VHH: EVQLVQSGGGLVQAGGSLRLSCATSVRILSVPAMGWYRQAPGKEREMVAVITSGGSTNYADSVKGRFTISRDNAKNTVYLQMNSLKLEDTAVYQCNLRDILSQPFWGQGTQVTVSS | 0.000473
NRCoV2-06 VHH (VHH) VHH: EVQLVQSGGGLVQAGESLRLSCAASVSTFSSYAMGWYRQAPGKQRELVASIGFVGATYYIDSVKGRFTISRDNAKKTAYLQMNDLKPDDTAVYYCNARHYGGSEYWGQGTQVTVSS | 0.00469
